# subject.of.test: Rvs167, P39743
# Sequence (P39743 419-482): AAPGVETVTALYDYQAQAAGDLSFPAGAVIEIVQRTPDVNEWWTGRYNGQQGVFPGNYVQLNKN
# assay.name: SPOT array
# experimental.conditions: median of control spots 2707
Provide the reported SPOT intensity of each item.
I only need the number, thanks.

## Input Looking for the measured SPOT intensity of EQEEIAPSLPSRNSI , can you help?
## Output 31

## Input So what's the measured SPOT intensity for this one? RKRAPTPPAPSRSEK
## Output 9

## Input Reported SPOT intensity for RSVKRPRRAPRPVVS : what is it?
## Output 9

## Input Fill blank: measured SPOT intensity of the binder MPAPPPPPPPPPGAF is ____.
## Output 0

## Input Tell me the measured SPOT intensity of SNRRPVPRRPSQPLN , please.
## Output 3400

## Input What does the data say about its SPOT intensity? Entry: GDHPKGPPPPPPPDE
## Output 0

## Input Using the record for APKREAPKPPANTSP , report its SPOT intensity.
## Output 0

Reference for the values: paper PMC2756588
